- System: KRAS-mutant PDC multicell tumor spheroid viability
- Test Name: Anticancer human tumor 521955-158-R2-J5-PDC patient-derived pancreatic carcinoma cell line growth inhibition [KRAS2]
- Test Parameters: second compound 0.316 µM; first compound 3.16 µM; active compounds read low
- Source text: Multicellular complex tumor spheroid response to RAS pathway inhibitors in combination with a targeted agents in patient-derived cell lines with oncogenic KRAS variants from multiple cancer types A high-throughput screen of multi-cell type tumor spheroids was designed to identify active combinations of targeted small molecules and KRAS pathway inhibitors. […] Compounds. […] If the clinical Cmax for an agent had not been determined, the highest concentration tested was 10 microM. […]
Metric Name: viability, T/C (%)
Expressed in %, but write only the number.

Request: Hello, please tell me recorded viability, T/C for this one: CCNC(=O)CC1N=C(c2ccc(Cl)cc2)c2cc(OC)ccc2-n2c(C)nnc21 (stereo not drawn) + COc1cc2nc(C)nc(NC(C)c3cc(N)cc(C(F)(F)F)c3)c2cc1OC1CCOC1
Result: 30

Request: Hello, please tell me recorded viability, T/C for this one: O=C(c1cc(Cc2n[nH]c(=O)c3ccccc23)ccc1F)N1CCN(C(=O)C2CC2)CC1 + CC1OCC2(CCN(c3cnc(Sc4ccnc(N)c4Cl)c(N)n3)CC2)C1N
Result: 49.8

Request: Hello, please tell me recorded viability, T/C for this one: Cn1nccc1Nc1nccc(-c2cc3c(s2)C(C)(C)N(CCN2CCOCC2)C3=O)n1 + C=CC(=O)N1CCN(c2nc(OCC3CCCN3C)nc3c2CCN(c2cccc4cccc(C)c24)C3)CC1CC#N
Result: 22.1

---

- Test system: KRAS-mutant PDC multicell tumor spheroid viability
- Test Name: Anticancer human tumor 521955-158-R2-J5-PDC cell line growth inhibition [KRAS2];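 further: viability read after seven days of drug exposure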
- Test Parameters: second compound 0.1 µM; first compound 0.0316 µM; active compounds read low
Lab note: anything with viability, T/C below 80% is marked y; values at 80% or higher are marked n.

Request: Dear colleague, could you confirm whether viability, T/C of CN(C)C/C=C/C(=O)Nc1cc2c(Nc3ccc(F)c(Cl)c3)ncnc2cc1O[C@H]1CCOC1 + COc1cc2nc(C)nc(NC(C)c3cc(N)cc(C(F)(F)F)c3)c2cc1OC1CCOC1 falls below 80%? Thanks.
Result: n

Request: Dear colleague, could you confirm whether viability, T/C of Cn1ncnc1[C@H]1c2n[nH]c(=O)c3cc(F)cc(c23)N[C@@H]1c1ccc(F)cc1 + C=CC(=O)N1CCN(c2nc(=O)n(-c3c(C)ccnc3C(C)C)c3nc(-c4c(O)cccc4F)c(F)cc23)C(C)C1 falls below 80%? Thanks.
Result: n

Request: Dear colleague, could you confirm whether viability, T/C of Cn1ncnc1[C@H]1c2n[nH]c(=O)c3cc(F)cc(c23)N[C@@H]1c1ccc(F)cc1 + CC1OCC2(CCN(c3cnc(Sc4ccnc(N)c4Cl)c(N)n3)CC2)C1N falls below 80%? Thanks.
Result: y

Request: Dear colleague, could you confirm whether viability, T/C of CC(C)NCC(C(=O)N1CCN(c2ncnc3c2C(C)CC3O)CC1)c1ccc(Cl)cc1 (stereo unspecified) + COc1cc2nc(C)nc(NC(C)c3cc(N)cc(C(F)(F)F)c3)c2cc1OC1CCOC1 falls below 80%? Thanks.
Result: n

Request: Dear colleague, could you confirm whether viability, T/C of CC(C)n1nc(-c2ccc3oc(N)nc3c2)c2c(N)ncnc21 + CNCc1ccccc1-c1csc(C(C)Nc2nc(C)nc3cc(OC)c(OC)cc23)c1 falls below 80%? Thanks.
Result: y

---

- System: KRAS-mutant PDC multicell tumor spheroid viability
- Test Name: Anticancer human tumor 521955-158-R2-J5-PDC cell line growth inhibition [KRAS2]; active = viability on the fitted dose curve at most 10% of control; inactive = the rest;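 further: viability read after seven days of drug exposure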
- Test Parameters: second compound 3.16 µM; first compound 3.16 µM
- Source text: Multicellular complex tumor spheroid response to RAS pathway inhibitors in combination with a targeted agents in patient-derived cell lines with oncogenic KRAS variants from multiple cancer types A high-throughput screen of multi-cell type tumor spheroids was designed to identify active combinations of targeted small molecules and KRAS pathway inhibitors. […] Compounds. […] If the clinical Cmax for an agent had not been determined, the highest concentration tested was 10 microM. […]
Returns: one label drawn from active, inactive

Request: For CC1COCCN1c1cc(-c2ccnn2C)c2ccnc(-c3ccn[nH]3)c2n1 (stereo not given) + C=CC(=O)N1CCN(c2nc(OCC3CCCN3C)nc3c2CCN(c2cccc4cccc(C)c24)C3)CC1CC#N , which call appears in the assay record?
Result: active

Request: For CC(C)NCC(C(=O)N1CCN(c2ncnc3c2C(C)CC3O)CC1)c1ccc(Cl)cc1 (stereo not given) + CC1OCC2(CCN(c3cnc(Sc4ccnc(N)c4Cl)c(N)n3)CC2)C1N , which call appears in the assay record?
Result: inactive

Request: For CCNC(=O)CC1N=C(c2ccc(Cl)cc2)c2cc(OC)ccc2-n2c(C)nnc21 (stereo not given) + COc1cc2nc(C)nc(NC(C)c3cc(N)cc(C(F)(F)F)c3)c2cc1OC1CCOC1 , which call appears in the assay record?
Result: inactive

Request: For CC1OCC2(CCN(c3cnc(Sc4ccnc(N)c4Cl)c(N)n3)CC2)C1N (stereo not given) + C=CC(=O)N1CCN(c2nc(OCC3CCCN3C)nc3c2CCN(c2cccc4cccc(C)c24)C3)CC1CC#N , which call appears in the assay record?
Result: active

Request: For O=C(c1cc(Cc2n[nH]c(=O)c3ccccc23)ccc1F)N1CCN(C(=O)C2CC2)CC1 + C=CC(=O)N1CCN(c2nc(=O)n(-c3c(C)ccnc3C(C)C)c3nc(-c4c(O)cccc4F)c(F)cc23)C(C)C1 , which call appears in the assay record?
Result: inactive

---

- Tested on: KRAS-mutant PDC multicell tumor spheroid viability
- Test Name: Anticancer human tumor 521955-158-R2-J5-PDC cell line growth inhibition [KRAS2];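 further: viability read after seven days of drug exposure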
- Test Parameters: second compound 0.316 µM; first compound 0.0316 µM; active compounds read low
Consider the following compounds; for each one, report its viability, T/C.
Expressed in %, but write only the number.

Request: Provide viability, T/C, system KRAS-mutant PDC multicell tumor spheroid viability, entry COC(=O)c1ccc2c(C(=Nc3ccc(N(C)C(=O)CN4CCN(C)CC4)cc3)c3ccccc3)c(O)[nH]c2c1 + C=CC(=O)N1CCN(c2nc(OCC3CCCN3C)nc3c2CCN(c2cccc4cccc(C)c24)C3)CC1CC#N
Result: 72.1

Request: Provide viability, T/C, system KRAS-mutant PDC multicell tumor spheroid viability, entry CCN1CCN(Cc2ccc(Nc3ncc(F)c(-c4cc(F)c5nc(C)n(C(C)C)c5c4)n3)nc2)CC1 + C=CC(=O)N1CCN(c2nc(OCC3CCCN3C)nc3c2CCN(c2cccc4cccc(C)c24)C3)CC1CC#N
Result: 90

Request: Provide viability, T/C, system KRAS-mutant PDC multicell tumor spheroid viability, entry Cn1ncnc1[C@H]1c2n[nH]c(=O)c3cc(F)cc(c23)N[C@@H]1c1ccc(F)cc1 + CNCc1ccccc1-c1csc(C(C)Nc2nc(C)nc3cc(OC)c(OC)cc23)c1
Result: 81.8

Request: Provide viability, T/C, system KRAS-mutant PDC multicell tumor spheroid viability, entry CN(C)C/C=C/C(=O)Nc1cc2c(Nc3ccc(F)c(Cl)c3)ncnc2cc1O[C@H]1CCOC1 + C=CC(=O)N1CCN(c2nc(=O)n(-c3c(C)ccnc3C(C)C)c3nc(-c4c(O)cccc4F)c(F)cc23)C(C)C1
Result: 90.6

Request: Provide viability, T/C, system KRAS-mutant PDC multicell tumor spheroid viability, entry O=C(c1cc(Cc2n[nH]c(=O)c3ccccc23)ccc1F)N1CCN(C(=O)C2CC2)CC1 + CC1OCC2(CCN(c3cnc(Sc4ccnc(N)c4Cl)c(N)n3)CC2)C1N
Result: 48.7

Request: Provide viability, T/C, system KRAS-mutant PDC multicell tumor spheroid viability, entry CCNC(=O)CC1N=C(c2ccc(Cl)cc2)c2cc(OC)ccc2-n2c(C)nnc21 (stereo unspecified) + CNCc1ccccc1-c1csc(C(C)Nc2nc(C)nc3cc(OC)c(OC)cc23)c1
Result: 105

Request: Provide viability, T/C, system KRAS-mutant PDC multicell tumor spheroid viability, entry CC1OCC2(CCN(c3cnc(Sc4ccnc(N)c4Cl)c(N)n3)CC2)C1N (stereo unspecified) + CNCc1ccccc1-c1csc(C(C)Nc2nc(C)nc3cc(OC)c(OC)cc23)c1
Result: 90.2

Request: Provide viability, T/C, system KRAS-mutant PDC multicell tumor spheroid viability, entry O=C(c1cc(Cc2n[nH]c(=O)c3ccccc23)ccc1F)N1CCN(C(=O)C2CC2)CC1 + C=CC(=O)N1CCN(c2nc(=O)n(-c3c(C)ccnc3C(C)C)c3nc(-c4c(O)cccc4F)c(F)cc23)C(C)C1
Result: 122

Request: Provide viability, T/C, system KRAS-mutant PDC multicell tumor spheroid viability, entry CC(C)NCC(C(=O)N1CCN(c2ncnc3c2C(C)CC3O)CC1)c1ccc(Cl)cc1 (stereo unspecified) + COc1cc2nc(C)nc(NC(C)c3cc(N)cc(C(F)(F)F)c3)c2cc1OC1CCOC1
Result: 95.9

Request: Provide viability, T/C, system KRAS-mutant PDC multicell tumor spheroid viability, entry O=C(c1cc(Cc2n[nH]c(=O)c3ccccc23)ccc1F)N1CCN(C(=O)C2CC2)CC1 + COc1cc2nc(C)nc(NC(C)c3cc(N)cc(C(F)(F)F)c3)c2cc1OC1CCOC1
Result: 81.2

Request: Provide viability, T/C, system KRAS-mutant PDC multicell tumor spheroid viability, entry CC1OCC2(CCN(c3cnc(Sc4ccnc(N)c4Cl)c(N)n3)CC2)C1N (stereo unspecified) + C=CC(=O)N1CCN(c2nc(=O)n(-c3c(C)ccnc3C(C)C)c3nc(-c4c(O)cccc4F)c(F)cc23)C(C)C1
Result: 89.4
